Hello, the source for this data is ChEMBL document CHEMBL1144767, in case you need it.

Reported pIC50 values for the following compounds.
target: Luciferin 4-monooxygenase (Photinus pyralis, UniProt P08659); assay: Inhibition of Photinus pyralis luciferase by Steady-Glo reporter gene assay
Sequence (P08659 whole entry): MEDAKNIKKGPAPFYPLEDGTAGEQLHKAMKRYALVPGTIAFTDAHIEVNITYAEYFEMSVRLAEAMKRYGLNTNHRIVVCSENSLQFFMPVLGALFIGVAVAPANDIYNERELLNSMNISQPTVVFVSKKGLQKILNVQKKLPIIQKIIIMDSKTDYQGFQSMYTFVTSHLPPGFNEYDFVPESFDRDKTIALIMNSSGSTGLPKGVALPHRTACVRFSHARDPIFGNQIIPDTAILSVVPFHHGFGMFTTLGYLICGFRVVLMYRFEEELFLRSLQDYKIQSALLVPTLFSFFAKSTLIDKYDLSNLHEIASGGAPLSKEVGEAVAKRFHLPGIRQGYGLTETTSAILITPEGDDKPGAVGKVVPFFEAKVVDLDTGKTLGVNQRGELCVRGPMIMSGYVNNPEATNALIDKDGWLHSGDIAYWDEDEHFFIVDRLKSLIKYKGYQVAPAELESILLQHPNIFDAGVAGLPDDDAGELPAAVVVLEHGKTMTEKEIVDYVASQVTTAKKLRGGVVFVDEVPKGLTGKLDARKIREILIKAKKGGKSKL
pIC50: −log10 of the molar value.

{"columns": ["compound", "value prefix", "pIC50"],
 "data": [
  ["CCOc1ccc2nc(NC(=O)c3ccoc3C)sc2c1", "=", 5.44],
  ["Clc1ccc(-c2nc(-c3ccccn3)no2)cc1Cl", "=", 5.48],
  ["Cc1ccc(O)c(/N=N/c2ccccc2)n1", "=", 5.80],
  ["Cc1cccc(/C=C/c2ccccc2)n1", "<", 4.00],
  ["COc1ccc(-c2cc3ccc(OCc4nn[nH]n4)cc3oc2=O)cc1", "=", 5.00],
  ["Cc1cccc(C#Cc2ccccc2)n1", "<", 4.00],
  ["O=C(N/N=C/c1ccccc1O)c1ccccc1O", "=", 4.70],
  ["Cc1cc(-c2ccc(/N=N/c3ccc4c(S(=O)(=O)O)cc(S(=O)(=O)O)c(N)c4c3O)c(C)c2)ccc1/N=N/c1ccc2c(S(=O)(=O)O)cc(S(=O)(=O)O)c(N)c2c1O [EVANS BLUE]", "=", 4.66],
  ["CCOc1ccc(NC(=O)c2ccccc2OC)cc1", "<", 4.30],
  ["Clc1cccc(-c2nc(-c3ccccn3)no2)c1", "=", 5.82],
  ["Cc1ccc(-c2nc(-c3ccccn3)no2)cc1Cl", "=", 5.80]
]}

* * *

target: Luciferin 4-monooxygenase (Photinus pyralis, UniProt P08659); test: Inhibition of Photinus pyralis luciferase by BrightGlo reporter gene assay
pIC50: −log10 of the molar value.
# if value of pIC50 reaches 5, tag condition met; if it stays below, tag condition not met

{"columns": ["compound", "category"],
 "data": [
  ["c1ccc(-c2noc(-c3ccc4ccccc4c3)n2)nc1", "condition met"],
  ["CCN(CC)c1ccc2cc(-c3nc4ccccc4[nH]3)c(=O)oc2c1", "condition met"],
  ["CN1CCN(C(=O)COc2ccc(-c3nc4ccccc4s3)cc2)CC1", "condition met"],
  ["C[C@@H](C(=O)O)c1ccc(N2Cc3ccccc3C2=O)cc1 [(R)-INDOPROFEN]", "condition met"],
  ["O=C(/C=C\\Nc1ccc(F)cc1)c1ccco1", "condition met"],
  ["Cc1ccc(O)c(/N=N/c2ccccc2)n1", "condition met"],
  ["Cc1cccc(C#Cc2ccccc2)n1", "condition not met"],
  ["Cc1ccc(-c2nc(-c3ccccn3)no2)cc1Cl", "condition met"],
  ["CCOc1ccc2nc(NC(=O)c3ccoc3C)sc2c1", "condition met"],
  ["O=c1c2ccccc2cnn1-c1nc2ccccc2s1", "condition met"],
  ["COc1cccc(-c2cc(=O)c3ccccc3o2)c1N", "condition not met"],
  ["O=c1cc(-c2ccccc2O)oc2ccc3ccccc3c12", "condition met"],
  ["Clc1ccc(-c2nc(-c3ccccn3)no2)cc1Cl", "condition met"]
]}

* * *

biological target: UniProt P08659; assay: Inhibition of Photinus pyralis luciferase
Entries annotated with measured log10 IC50
attribute measured: log10 IC50 (log10 of the value in nM)

{"columns": ["query smiles", "log10 IC50"],
 "data": [
  ["Cc1ccc(-c2noc(-c3ccccc3Br)n2)cc1", 3.00],
  ["COc1cccc(-c2cc(=O)c3ccccc3o2)c1N", 3.79],
  ["O=C(/C=C\\Nc1ccccc1Br)c1ccccn1", 1.90],
  ["Cc1ccc(C(=O)Nc2nc3ccc(S(C)(=O)=O)cc3s2)s1", 3.04],
  ["Cc1cccc(C#Cc2ccccc2)n1", 3.67],
  ["O=C(N/N=C/c1ccccc1O)c1ccccc1O", 2.90],
  ["O=c1cc(-c2ccccc2O)oc2ccc3ccccc3c12", 1.70],
  ["Cc1cc(-c2ccc(/N=N/c3ccc4c(S(=O)(=O)O)cc(S(=O)(=O)O)c(N)c4c3O)c(C)c2)ccc1/N=N/c1ccc2c(S(=O)(=O)O)cc(S(=O)(=O)O)c(N)c2c1O", 3.23],
  ["CCN(CC)c1ccc2cc(-c3nc4ccccc4[nH]3)c(=O)oc2c1", 2.38],
  ["Cc1cccc(/C=C/c2ccccc2)n1", 3.63],
  ["O=C(/C=C\\Nc1ccc(F)cc1)c1ccco1", 3.00],
  ["Clc1ccc(-c2nc(-c3ccccn3)no2)cc1Cl", 2.92],
  ["COc1ccc(C(=O)Nc2ccc(C)cn2)c(OC)c1", 1.90],
  ["CC(C)(C)C(=O)Nc1ccc(NC(=O)c2cccc(O)c2)nc1", 2.85],
  ["Cc1ccc(-c2nc(-c3ccccc3)no2)c(Cl)c1", 2.18]
]}

* * *

molecular target: Luciferin 4-monooxygenase (Photinus pyralis, UniProt P08659); test: Inhibition of Photinus pyralis luciferase by PK-Light assay
pIC50: −log10 of the molar value.
Label condition met when pIC50 >= 6; otherwise condition not met.

{"columns": ["molecule", "category"],
 "data": [
  ["COc1ccc(-c2cc3ccc(OCc4nn[nH]n4)cc3oc2=O)cc1", "condition not met"],
  ["c1ccc(-c2noc(-c3ccc4ccccc4c3)n2)nc1", "condition met"],
  ["Cc1ccc(-c2noc(-c3ccccc3Br)n2)cc1", "condition not met"],
  ["O=c1c2ccccc2cnn1-c1nc2ccccc2s1", "condition met"],
  ["CN(C)c1ccc(N/C=C\\C(=O)c2ccccc2)cc1", "condition met"],
  ["COc1cccc(-c2cc(=O)c3ccccc3o2)c1N", "condition not met"],
  ["O=C(/C=C\\Nc1ccccn1)c1ccc(Cl)cc1", "condition not met"],
  ["Cc1ccc(O)c(/N=N/c2ccccc2)n1", "condition not met"],
  ["Cc1cc(-c2ccc(/N=N/c3ccc4c(S(=O)(=O)O)cc(S(=O)(=O)O)c(N)c4c3O)c(C)c2)ccc1/N=N/c1ccc2c(S(=O)(=O)O)cc(S(=O)(=O)O)c(N)c2c1O", "condition not met"],
  ["CCOc1ccc(NC(=O)c2ccccc2OC)cc1", "condition not met"],
  ["Brc1ccc(-c2nc(-c3ccccn3)no2)o1", "condition not met"],
  ["Cc1ccc(-c2nc(-c3ccccn3)no2)cc1Cl", "condition not met"],
  ["COc1ccc(C(=O)Nc2ccc(C)cn2)c(OC)c1", "condition met"],
  ["Cc1ccc(-c2nc(-c3ccccc3)no2)c(Cl)c1", "condition met"],
  ["COc1ccc2nc(NC(=O)c3ccoc3C)sc2c1", "condition not met"],
  ["C[C@@H](C(=O)O)c1ccc(N2Cc3ccccc3C2=O)cc1 [(R)-INDOPROFEN]", "condition not met"],
  ["CCOc1ccc(-c2cc(C(=O)N3CCN(C)CC3)c3ccccc3n2)cc1", "condition not met"],
  ["O=C(N/N=C/c1ccccc1O)c1ccccc1O", "condition not met"],
  ["c1ccc(-c2noc(-c3ccc4ccccc4c3)n2)cc1", "condition not met"],
  ["Clc1ccc(-c2nc(-c3ccccn3)no2)cc1Cl", "condition not met"],
  ["CS(=O)(=O)c1ccc2nc(NC(=O)c3cccs3)sc2c1", "condition not met"],
  ["O=C(/C=C\\Nc1ccc(F)cc1)c1ccco1", "condition not met"],
  ["Clc1cccc(-c2nc(-c3ccccn3)no2)c1", "condition not met"],
  ["CCOc1ccc2nc(NC(=O)c3ccoc3C)sc2c1", "condition not met"],
  ["CCN(CC)c1ccc2cc(-c3nc4ccccc4[nH]3)c(=O)oc2c1", "condition met"],
  ["Cc1ccc(C(=O)Nc2nc3ccc(S(C)(=O)=O)cc3s2)s1", "condition not met"],
  ["Clc1cccc(/C=N\\C=N\\c2cccc(Cl)c2)c1", "condition not met"],
  ["Cc1cccc(/C=C/c2ccccc2)n1", "condition not met"],
  ["O=C(/C=C\\Nc1ccccc1Br)c1ccccn1", "condition met"],
  ["Cc1cccc(C#Cc2ccccc2)n1", "condition not met"],
  ["CC(C)(C)C(=O)Nc1ccc(NC(=O)c2cccc(O)c2)nc1", "condition not met"]
]}

* * *

target: Luciferin 4-monooxygenase (Photinus pyralis, UniProt P08659); assay: Inhibition of Photinus pyralis luciferase by Easy lite assay
pIC50: −log10 of the molar value.
attribute measured: pIC50

{"columns": ["compound", "reported value"],
 "data": [
  ["COc1ccc2nc(NC(=O)c3ccoc3C)sc2c1", 5.35],
  ["Clc1cccc(-c2nc(-c3ccccn3)no2)c1", 6.15],
  ["Cc1ccc(-c2nc(-c3ccccn3)no2)cc1Cl", 6.10],
  ["CCOc1ccc(NC(=O)c2ccccc2OC)cc1", 5.82],
  ["COc1ccc(C(=O)Nc2ccc(C)cn2)c(OC)c1", 6.55],
  ["Cc1ccc(O)c(/N=N/c2ccccc2)n1", 5.90],
  ["Clc1ccc(-c2nc(-c3ccccn3)no2)cc1Cl", 5.72],
  ["O=c1c2ccccc2cnn1-c1nc2ccccc2s1", 6.82],
  ["c1ccc(-c2noc(-c3ccc4ccccc4c3)n2)cc1", 5.68],
  ["O=c1cc(-c2ccccc2O)oc2ccc3ccccc3c12", 6.70],
  ["CS(=O)(=O)c1ccc2nc(NC(=O)c3cccs3)sc2c1", 5.89],
  ["O=C(N/N=C/c1ccccc1O)c1ccccc1O", 5.44],
  ["Brc1ccc(-c2nc(-c3ccccn3)no2)o1", 5.29],
  ["Cc1ccc(-c2nc(-c3ccccc3)no2)c(Cl)c1", 6.40],
  ["c1ccc(-c2noc(-c3ccc4ccccc4c3)n2)nc1", 6.66],
  ["COc1ccc(-c2cc3ccc(OCc4nn[nH]n4)cc3oc2=O)cc1", 5.49],
  ["CCOc1ccc(-c2cc(C(=O)N3CCN(C)CC3)c3ccccc3n2)cc1", 5.96],
  ["COc1cccc(-c2cc(=O)c3ccccc3o2)c1N", 4.96],
  ["CCOc1ccc2nc(NC(=O)Nc3cccs3)sc2c1", 5.68],
  ["O=C(/C=C\\Nc1ccc(F)cc1)c1ccco1", 5.96],
  ["O=C(/C=C\\Nc1ccccn1)c1ccc(Cl)cc1", 5.33],
  ["CN(C)c1ccc(N/C=C\\C(=O)c2ccccc2)cc1", 6.40],
  ["Cc1ccc(-c2noc(-c3ccccc3Br)n2)cc1", 5.64],
  ["Cc1cc(-c2ccc(/N=N/c3ccc4c(S(=O)(=O)O)cc(S(=O)(=O)O)c(N)c4c3O)c(C)c2)ccc1/N=N/c1ccc2c(S(=O)(=O)O)cc(S(=O)(=O)O)c(N)c2c1O", 5.12],
  ["CCOc1ccc2nc(NC(=O)c3ccoc3C)sc2c1", 5.24],
  ["CC(C)(C)C(=O)Nc1ccc(NC(=O)c2cccc(O)c2)nc1", 6.10],
  ["O=C(/C=C\\Nc1cccc(F)c1)c1ccc2c(c1)OCO2", 5.92],
  ["CN1CCN(C(=O)COc2ccc(-c3nc4ccccc4s3)cc2)CC1", 6.40],
  ["C[C@@H](C(=O)O)c1ccc(N2Cc3ccccc3C2=O)cc1 [(R)-INDOPROFEN]", 5.44],
  ["Cc1cccc(C#Cc2ccccc2)n1", 5.13],
  ["O=C(/C=C\\Nc1ccccc1Br)c1ccccn1", 6.77],
  ["CCN(CC)c1ccc2cc(-c3nc4ccccc4[nH]3)c(=O)oc2c1", 4.85],
  ["Cc1ccc2nc(NC(=O)c3cccs3)sc2c1", 5.77],
  ["Cc1cccc(/C=C/c2ccccc2)n1", 4.96]
]}
